Tested on: human lung cancer A549 cells
Assay: Cell Titre Glo luminescent cell viability assay, A549
Assay type: cell-based
Settings: 72 h, incubated 3 days, 0.3 nM~10 μM, 0.1% DMSO
Catalogue of IC50 readings, one per entry.

Smiles Entry | System Tested | Metric | Data Value
CC[C@@]1(O)C(=O)OCc2c1cc1n(c2=O)Cc2cc3ccc(OC)c(O)c3nc2-1 | human lung cancer A549 cells | IC50 | < 500 nM

Ask | Name the recorded IC50 of the item CC[C@@]1(O)C(=O)OCc2c1cc1n(c2=O)Cc2c-1nc1cc(F)c(OC)cc1c2N in your answer.
Reply | < 100 nM

Ask | Quickly give me recorded IC50 for CC[C@@]1(O)C(=O)OCc2c1cc1n(c2=O)Cc2c-1nc1cc(F)c(OC)cc1c2C
Reply | < 100 nM

Ask | Report IC50 for CC[C@@]1(O)C(=O)OCc2c1cc1n(c2=O)Cc2cc3cc(OC)ncc3nc2-1
Reply | < 100 nM

The measured values listed here are drawn from patent US9458170B2.
